tested on: OSR1; construct: gene OXSR1; conditions: concentration: 1 μM,replicates: in singlicate; n = 1;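 further: KINOMEscan kinase panel screen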
Documented %Inh across a set of molecules
observable: %Inh (%)

molecule=CC(C)S(=O)(=O)N1CCN(Cc2ccc3c(c2)nc(NC(=O)c2ccsc2)n3C[C@H](O)c2ccccc2)CC1 target_of_assay=OSR1 uom=% result=10
molecule=CN1CCN(CCNc2nc3cc(Oc4ccc(NC(=O)Nc5cc(C(F)(F)F)ccc5F)cc4)ccc3[nH]2)CC1.Cl.Cl target_of_assay=OSR1 uom=% result=0
molecule=COC(=O)c1cccc(NC(=O)NC2CCN(c3ccnc(NCc4ccc(F)cc4)n3)CC2)c1 target_of_assay=OSR1 uom=% result=19
molecule=CN(c1cccc(CNc2nc(Nc3ccc4c(c3)CC(=O)N4)ncc2C(F)(F)F)c1)S(C)(=O)=O target_of_assay=OSR1 uom=% result=0
molecule=O=C(Nc1cccc(C(F)(F)F)c1)c1cccc(Oc2ccc3nccn3n2)c1 target_of_assay=OSR1 uom=% result=0
molecule=Cl.c1ccc(Oc2ccc(Nc3ccnc4cc(-c5ccc(CN6CCNCC6)o5)ccc34)cc2)nc1 target_of_assay=OSR1 uom=% result=0
molecule="COc1cccc(CNC(=O)NC2CCN(c3ccnc(Nc4cc(OC)c(OC)c(OC)c4)n3)C2)c1 (centres unmarked)" target_of_assay=OSR1 uom=% result=3
molecule=Cc1ccc(CC(=O)N2CCc3cc(-c4cn(C)c5ncnc(N)c45)ccc32)cc1 target_of_assay=OSR1 uom=% result=0

* * *

system: CDKL2; conditions: concentration: 1 μM,replicates: in singlicate; n = 1
observable: %Inh

compound=OCCn1cc(-c2cnc3nnn(Cc4ccc5ncccc5c4)c3n2)cn1 target_of_assay=CDKL2 result=0%
compound="CCN1CCN(CCCC(=O)Nc2n[nH]c3nc(-c4ccc(O)cc4)c(Br)cc23)CC1 [SB-731579]" target_of_assay=CDKL2 result=73%
compound="C[C@@H](Oc1cc(-n2cnc3ccc(-c4ccncc4)cc32)sc1C(N)=O)c1ccccc1Cl [GSK483724]" target_of_assay=CDKL2 result=78%
compound="COc1cc(Nc2nccc(N3CCC(NC(=O)c4cccc(C#N)c4)C3)n2)cc(OC)c1OC (centres unmarked) [GSK1379751]" target_of_assay=CDKL2 result=41%
compound="CS(=O)(=O)Nc1ccc(-c2ccnc3[nH]ccc23)cc1 [GSK993273]" target_of_assay=CDKL2 result=19%
compound="C[C@@H](Oc1cc(-n2cnc3cc(-c4cnn(C)c4)ccc32)sc1C(N)=O)c1ccccc1Cl [GSK580432]" target_of_assay=CDKL2 result=22%
compound="CC(C)S(=O)(=O)N1CCN(Cc2ccc3c(c2)nc(NC(=O)c2ccsc2)n3C[C@H](O)c2ccccc2)CC1 [GW635815]" target_of_assay=CDKL2 result=6%
compound="Cc1cccc(-c2nc(Nc3ccncc3)c3sccc3n2)n1 [GW869641]" target_of_assay=CDKL2 result=0%

* * *

test system: ICK; settings: concentration: 1 μM,replicates: in singlicate; n = 1
Note to self: values exactly at 70% are True. So %Inh at or above 70% is True, below is False.

compound=CC(=O)Nc1nc2cnc(Nc3cc(NC(=O)c4cccc(CC(C)(C)C#N)c4)ccc3C)nc2s1 category=False
compound="CS(=O)c1ccc(-c2coc3ccc(-c4n[nH]c(=O)o4)cc23)cc1 (centres unmarked)" category=False
compound=FC(F)(F)c1cc(Br)cc(Nc2nccc(-c3cnn4ncccc34)n2)c1 category=True
compound=CCCC(=O)Nc1n[nH]c2ncccc12 category=False

* * *

system: QSK; conditions: concentration: 1 μM,replicates: in singlicate; n = 1
observable: %Inh (%)

molecule=COc1cccc(C2=C(Nc3cccc(Cl)c3)C(=O)NC2=O)c1 result=3
molecule=c1ccc(Oc2ccc(Nc3ccnc4ccc(-c5ccccn5)cc34)cc2)cc1 result=14
molecule=CN(c1ccc2c(c1)nc(NCc1ccc(F)cc1)n2C)c1ccnc(Nc2ccc(CS(C)(=O)=O)cc2)n1.Cl result=0
molecule=CCn1c(-c2nonc2N)nc2cncc(Br)c21 result=0
molecule="COc1cc(Nc2nccc(N3CCC(NC(=O)c4cccc(C#N)c4)C3)n2)cc(OC)c1OC (centres unmarked)" result=0
molecule=Cc1cccc(-c2nc(Nc3ccncc3)c3sccc3n2)n1 result=24
molecule=Cn1ccc2ncnc(Oc3ccc(NC(=O)Nc4cccc(C(F)(F)F)c4)c(F)c3)c21 result=0
molecule="CCNCC(Cc1ccccc1)NC(=O)c1cc(Br)c(-c2ccnc3[nH]ccc23)s1.Cl.Cl (centres unmarked)" result=0
molecule=CC(=O)c1c(-c2ccncc2)[nH]c(-c2ccncc2)c1C result=0
molecule=FC(F)(F)c1cc(Br)cc(Nc2nccc(-c3cnn4ncccc34)n2)c1 result=12
molecule=CS(=O)(=O)Nc1ccc(-c2ccnc3[nH]ccc23)cc1 result=17
molecule=CC(=O)Nc1ccc(-c2cc3ncnc(SCC(=O)O)c3s2)cc1 result=1
molecule=C[C@@H]1CNc2c(sc3ccc4nc(-c5ccncc5)ccc4c23)C(=O)N1 result=0
molecule=Cn1cc(-c2cccc3c(N)c(C(N)=O)nnc23)cn1 result=3
molecule=COC(=O)Nc1nc2cc(Oc3ccc(NC(=O)Nc4cc(C(F)(F)F)ccc4Cl)cc3)ccc2[nH]1.Cl result=9
molecule=CC(=O)Nc1nc2cnc(Nc3cc(NC(=O)c4cccc(CC(C)(C)C#N)c4)ccc3C)nc2s1 result=0
molecule=O=C(NOCC1CC1)c1cc(Br)c(F)c(F)c1Nc1ccc(I)cc1Cl result=0

* * *

test system: PIK3CB; details: concentration: 1 μM,replicates: in singlicate; n = 1
observable: %Inh (%)

smiles_record=C[C@@H](Oc1cc(-n2cnc3cc(-c4ccncc4)ccc32)sc1C(N)=O)c1ccccc1Cl observable=%Inh result=0
smiles_record=c1ccc(Oc2ccc(Nc3ccnc4ccc(-c5ccccn5)cc34)cc2)cc1 observable=%Inh result=27
smiles_record=CC(C)S(=O)(=O)N1CCN(Cc2ccc3c(c2)nc(NC(=O)c2ccsc2)n3C[C@H](O)c2ccccc2)CC1 observable=%Inh result=0
smiles_record=C[C@@H]1CNc2c(sc3ccc4nc(-c5ccncc5)ccc4c23)C(=O)N1 observable=%Inh result=0
smiles_record=O=C1NCCc2[nH]c(-c3ccncc3)cc21 observable=%Inh result=45

* * *

system: MLK1; construct: gene MAP3K9; details: concentration: 1 μM,replicates: in singlicate; n = 1
observable: %Inh

smiles_record=O=C(Nc1cccc(C(F)(F)F)c1)c1cccc(Oc2ccc3nccn3n2)c1 result=9%
smiles_record=CN(c1cccc(CNc2nc(Nc3ccc4c(c3)CC(=O)N4)ncc2C(F)(F)F)c1)S(C)(=O)=O result=93.3%
smiles_record=Cn1cc(-c2cccc3c(N)c(C(N)=O)nnc23)cn1 result=8%
smiles_record=O=C(NOCC1CC1)c1cc(Br)c(F)c(F)c1Nc1ccc(I)cc1Cl result=0%
smiles_record=Cc1cccc2c(-c3ccncc3)c(-c3ccc(F)cc3)nn12.Cl result=0%

* * *

system: VRK2; conditions: concentration: 1 μM,replicates: in singlicate; n = 1
observable: %Inh (%)

molecule=O=C(Nc1ccc(Oc2ccc3nc(NC(=O)C4CC4)cn3n2)c(F)c1)c1cccn(-c2ccccc2)c1=O uom=% result=0
molecule=COc1cccc(OC)c1C(=O)Nc1cccc(-c2nn3ccccc3c2-c2ccnc(Nc3cccc(F)c3)n2)c1 uom=% result=0
molecule=CC(C)S(=O)(=O)N1CCN(Cc2ccc3c(c2)nc(NC(=O)c2ccsc2)n3C[C@H](O)c2ccccc2)CC1 uom=% result=11
molecule=Cn1ccc2ncnc(Oc3ccc(NC(=O)Nc4cncc(C(F)(F)F)c4)c(Cl)c3)c21 uom=% result=0
molecule="Cc1nnc(-c2ccc3occ(-c4ccc(S(C)=O)cc4)c3n2)o1 (centres unmarked)" uom=% result=0
molecule=FC(F)(F)c1cc(Br)cc(Nc2nccc(-c3cnn4ncccc34)n2)c1 uom=% result=4
molecule="COc1cccc(CNC(=O)NC2CCN(c3ccnc(Nc4cc(OC)c(OC)c(OC)c4)n3)C2)c1 (centres unmarked)" uom=% result=0
molecule=Cn1ccc2ncnc(Oc3ccc(NC(=O)Nc4cnn(C(C)(C)C)c4)c(Cl)c3)c21 uom=% result=0

* * *

Documented %Inh across a set of molecules
system: PFTAIRE2; conditions: concentration: 1 μM,replicates: in singlicate; n = 1
observable: %Inh (%)

molecule="COc1cccc(C2=C(Nc3cccc(Cl)c3)C(=O)NC2=O)c1 [SB-341556]" result=8
molecule=CS(=O)(=O)c1cccc(CNc2nc(Nc3ccc4c(c3)[C@@H]3C[C@@H]4CNC3=O)ncc2C(F)(F)F)c1 result=18
molecule="CCn1c(-c2nonc2N)nc2cncc(CNC3CCNCC3)c21.Cl [SB-747651]" result=14
molecule="COc1cc2nccc(Nc3ccc(Oc4ccccc4)cc3)c2cc1OC.Cl [GI261656]" result=5
molecule="CCNCC(Cc1ccccc1)NC(=O)c1cc(Br)c(-c2ccnc3[nH]ccc23)s1.Cl.Cl (stereo not drawn) [GSK1383280]" result=0
molecule="CS(=O)c1ccc(-c2coc3ccc(-c4n[nH]c(=O)o4)cc23)cc1 (stereo not drawn)" result=0
molecule="CC(C)c1nc(-c2cccc(NS(=O)(=O)c3ccccc3)c2)c(-c2ccnc(Nc3ccc4c(c3)CN(C)CC4)n2)s1 [GSK1649598]" result=85
molecule="Cc1n[nH]c2cc(Nc3ccnc(Nc4cccc(CN5CCOCC5)c4)n3)ccc12 [GW682569]" result=7
molecule="CSc1nccc(-c2c(-c3ccc(F)cc3)ncn2CCCN2CCOCC2)n1.Cl [SB-217146]" result=0
molecule="O=C(Nc1n[nH]c2cc(-c3ccco3)ccc12)C1CC1 [SB-737447]" result=0
molecule="CN1CCN(CCCNc2nccc(-c3c(-c4ccc(F)cc4)nn4cc(C(N)=O)ccc34)n2)CC1 [GW622475]" result=33
molecule="CCCC(=O)Nc1n[nH]c2ncccc12 [SB-601436]" result=14
molecule="C[C@@H](Oc1cc(-n2cnc3cc(-c4ccncc4)ccc32)sc1C(N)=O)c1ccccc1Cl [GSK479719]" result=17
molecule="CCn1c(-c2nonc2N)nc2cncc(Br)c21 [SB-738004]" result=10
molecule="C[C@@H](Oc1cc(-n2cnc3ccc(-c4ccncc4)cc32)sc1C(N)=O)c1ccccc1Cl [GSK483724]" result=22
molecule="Cl.Nc1n[nH]c2cc(-c3ccccn3)ccc12 [GSK2189892]" result=5
molecule="O=c1[nH]cc(-c2ccc(O)cc2)c2sc(-c3ccncc3)cc12 [GSK1033723]" result=11
molecule="COc1cccc(CNC(=O)NC2CCN(c3ccnc(Nc4cc(OC)c(OC)c(OC)c4)n3)C2)c1 (stereo not drawn) [GSK1379765]" result=16

Provenance of the data: paper PMC5540273
